Measured values drawn from patent US3988453A for this set.

Test system: stereotypes provoked by apomorphine
Test: antagonism to stereotypes provoked by apomorphine
Type: in vivo, male rats
Details: 48 h; rat, oral, apomorphine 2 d after test product; read-out: ED50 (DE50), apomorphine sterotypes
Counter-ions that a name gives are not always drawn.
Recorded measurements of ED50, one per entry
Just the number in mg/kg, nothing appended.

molecule	value reported
Clc1ccc2c(c1)N(CCCN1CCC(c3c[nH]c4ccccc34)CC1)c1ccccc1S2 [Example 5, hydrochloride]	12

Note down ED50 recorded for CC(CN1CCC(c2c[nH]c3ccccc23)CC1)CN1c2ccccc2Sc2ccc(C(F)(F)F)cc21 (stereo not shown) [Example 7, hydrochloride]
10

Note down ED50 recorded for COc1ccc2c(c1)N(CC(C)CN1CCC(c3c[nH]c4ccccc34)CC1)c1ccccc1S2 (stereo not shown) [Example 8, hydrochloride]
12

Note down ED50 recorded for FC(F)(F)c1ccc2c(c1)N(CCCN1CCC(c3c[nH]c4ccccc34)CC1)c1ccccc1S2 [Example 2, hydrochloride]
18

###

Recorded measurements of ED50, one per entry
Test system: stereotypes provoked by apomorphine
Assay: antagonism to stereotypes provoked by apomorphine
Type: in vivo, male rats
Conditions: 48 h; rat, oral, apomorphine 2 d after test product; read-out: ED50 (DE50), apomorphine sterotypes
Where a name gives a salt, the structure may show the parent alone.
Just the number in mg/kg, nothing appended.

compound	target system	unit of measurement	ED50
COc1ccc2c(C3CCN(CCCN4c5ccccc5Sc5ccc(C(F)(F)F)cc54)CC3)c(C)[nH]c2c1 [Example 4, hydrochloride]	stereotypes provoked by apomorphine	mg/kg	9

Here's the next entry for you.
Give measured ED50 for COc1ccc2c(c1)N(CCCN1CCC(c3c[nH]c4ccccc34)CC1)c1ccccc1S2 [Example 6, hydrochloride] (stereotypes provoked by apomorphine).
45

###

System: toxicity provoked by amphetamine
Test: antagonism to toxicity provoked by amphetamine
Assay type: in vivo, male mice
Conditions: 48 h; mouse, oral, dexamphetamine 2 d after test product; read-out: ED50 (DE50), amphetaminic toxicity
Where a name gives a salt, the structure may show the parent alone.
endpoint label: ED50

Worked cases, answers included:
compound	ED50
COc1ccc2[nH]cc(C3CCN(CCCN4c5ccccc5Sc5ccc(C(F)(F)F)cc54)CC3)c2c1 [Example 3, hydrochloride]	< 10 mg/kg
COc1ccc2c(c1)N(CC(C)CN1CCC(c3c[nH]c4ccccc34)CC1)c1ccccc1S2 (stereo not drawn) [Example 8, hydrochloride]	< 10 mg/kg

Here's the next entry for you.
Note down ED50 recorded for COc1ccc2c(c1)N(CCCN1CCC(c3c[nH]c4ccccc34)CC1)c1ccccc1S2 [Example 6, hydrochloride]
10 mg/kg

###

Assay: acute toxicity
Details: mouse, in vivo, ip; Swiss mice, intraperitoneal, mortality at 72 hours
Where a name gives a salt, the structure may show the parent alone.
endpoint label: LD50 at 72 h

Note down LD50 at 72 h recorded for FC(F)(F)c1ccc2c(c1)N(CCCN1CCC(c3c[nH]c4ccccc34)CC1)c1ccccc1S2 [Example 2, hydrochloride]
~300 mg/kg
